system: PPARg:RXRa 90nM:30nM, anti-RXR (NR concentration 90 nM, RXRa partner concentration 30 nM); test: PBM binding z-score (relative to random genomic background probes); higher = stronger binding; sequences stand for … in GC…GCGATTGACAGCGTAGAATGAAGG
The threshold is inclusive: PBM binding z-score of exactly 3 counts as Criterion met; values below receive Criterion not met.

Answered cases to consult:
> print(dat)
                       sequence.input     category.label
1  TCACATAGGTAAAGGTGAAAGTCGAACGATATGA      Criterion met
2  ACTAGCAGGCCAAGTTTGGGTCATTCAAACAAAG  Criterion not met

Okay, next one:
INPUT: Identify whether the reported PBM binding z-score of the following sequence is 3 or greater: GGAATGAGGGCAAGTTGATAGCAGAGTTTGATGG
OUTPUT: Criterion not met

----------
PBM binding z-score for assorted sequences
tested on: VDR:RXRa (NR concentration 270 nM, RXRa partner concentration 90 nM); test: PBM binding z-score (relative to random genomic background probes); higher = stronger binding; sequences stand for … in GC…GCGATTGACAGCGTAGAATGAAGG
# print the numeric value only

Field: example entries. Status: answers known.
> print(dat)
                        sequence.input                     target.or.test.system  endpoint.result
 1  CCTAGCAGGCCAGTCTGGGTCACTCAAGGCTTGA  VDR:RXRa (NR concentration 270 nM, RXRa partner concentration 90 nM)            0.512
 2  ATATGTAGGTTACATCCAGGTCATTCAGGCTATG  VDR:RXRa (NR concentration 270 nM, RXRa partner concentration 90 nM)             4.11
 3  CAAACTAGGTTACCGGAAGGTCAAAGTCCGCATG  VDR:RXRa (NR concentration 270 nM, RXRa partner concentration 90 nM)             4.16
 4  TCATATATGTAAACAGGTGAAAGTCCGTAAGTTA  VDR:RXRa (NR concentration 270 nM, RXRa partner concentration 90 nM)             1.31
 5  ATATCTAGGTAACCAAGTTCAGTGAATGCCGAAC  VDR:RXRa (NR concentration 270 nM, RXRa partner concentration 90 nM)             3.97
 6  GCTAGTTGGTCAGTAAAAGGTCACACAACGGTCG  VDR:RXRa (NR concentration 270 nM, RXRa partner concentration 90 nM)             4.19
 7  CGTCCAAGGTCAATACTAGGTCAGTGAAAGCATT  VDR:RXRa (NR concentration 270 nM, RXRa partner concentration 90 nM)             4.63
 8  CAAACTAGGTCACCCGAAGGTCAAAGTCCGCATG  VDR:RXRa (NR concentration 270 nM, RXRa partner concentration 90 nM)             5.75
 9  CCTAGCAGGACAGGGTCACTCAAGCATTTCGCTT  VDR:RXRa (NR concentration 270 nM, RXRa partner concentration 90 nM)              2.9
10  GGAACGTGGGCAAGTTGATAGCAGAGTTTGATGG  VDR:RXRa (NR concentration 270 nM, RXRa partner concentration 90 nM)           -0.629

INPUT: Consider the sequence CCTATTAGTTGACTATAAGGGCAACCGAAGCTCG and give its measured PBM binding z-score.
OUTPUT: 0.181

INPUT: Consider the sequence CAAACTAGGTCACAGAGGTCAAAGACCGTGCGTA and give its measured PBM binding z-score.
OUTPUT: 7.76

INPUT: Consider the sequence TATACAGGGTCAAAGGACAGAGTACGAATGTCGA and give its measured PBM binding z-score.
OUTPUT: 4.6

INPUT: Consider the sequence TCGGGTAGGTTAGGGGCATTCAGAATGGCGTCGA and give its measured PBM binding z-score.
OUTPUT: 1.57

INPUT: Consider the sequence AATACAGGGTCATCGGAGGCCAGAGTACGCACAG and give its measured PBM binding z-score.
OUTPUT: 5.88

INPUT: Consider the sequence TCGAGTAGGTTACCAATGGGTCATTCAGCTTTCT and give its measured PBM binding z-score.
OUTPUT: 1.85

INPUT: Consider the sequence ACTAGCAGGCCAAGTGTCACTCAAGATTAGTCCG and give its measured PBM binding z-score.
OUTPUT: -0.322

INPUT: Consider the sequence CCAGACAGGTGAGATGGTAACTCAGCCTCGATTA and give its measured PBM binding z-score.
OUTPUT: -0.293

INPUT: Consider the sequence CCGACTGGGGCAAGGTTACCATAACGCACAGCCA and give its measured PBM binding z-score.
OUTPUT: 0.0411

INPUT: Consider the sequence GCTAGTTGGTAAGTAAAAGGTCACACACCGGTCG and give its measured PBM binding z-score.
OUTPUT: 3.82

INPUT: Consider the sequence CCTGCTGGGCCAAAAAGGTCATTGATGCCGATAA and give its measured PBM binding z-score.
OUTPUT: 4.84

INPUT: Consider the sequence CCTACTGGGCCAAATGTCATTGATTCCAATGCTC and give its measured PBM binding z-score.
OUTPUT: 0.0339

INPUT: Consider the sequence GCTATTAGTTGAAAGGGCAACCGGATGATTCTCG and give its measured PBM binding z-score.
OUTPUT: 0.47

INPUT: Consider the sequence CCTCGGAGGACAACAGGAGGTCAGAGCTGCCAGA and give its measured PBM binding z-score.
OUTPUT: 2

INPUT: Consider the sequence CCTACTGGGCCACGAAAGGTCATGGATTCAGTGA and give its measured PBM binding z-score.
OUTPUT: 4.1

INPUT: Consider the sequence TCTTGAAGATCAAAGGTTAAGAAAGCCGAAGCCT and give its measured PBM binding z-score.
OUTPUT: 1.64

INPUT: Consider the sequence GATACAGGGTCAGCTGGAGGCCAGAGTATGGAAA and give its measured PBM binding z-score.
OUTPUT: 3.29

INPUT: Consider the sequence TGTCAAAGTTGAAAGGTAACGTAAGTATCCACAC and give its measured PBM binding z-score.
OUTPUT: 0.996

INPUT: Consider the sequence CCGACTGGGGCAGGAAGGTTACCATACCATCCGG and give its measured PBM binding z-score.
OUTPUT: 0.235

INPUT: Consider the sequence CGTCCAAGGTCAGAGAGTTCAGTGAATGCCGAGT and give its measured PBM binding z-score.
OUTPUT: 7.65

INPUT: Consider the sequence TCATATAGGTAATACAAGTGAAAGTCGGCATCTA and give its measured PBM binding z-score.
OUTPUT: 1.24

Values were extracted from the supplement of paper PMC6555819.
